- Tested on: SF-268
- Measurement Description: NCI tumour cell line growth inhibition, 48 h
Calls of active or inactive are those of the source. Cut-off read from the data, not from the text of the source: active = GI50 up to about 1.1 µM and inactive = higher.
Readout Name: GI50

- FC(F)(F)C1(C(F)(F)F)O[Si]2(OC(C(F)(F)F)(C(F)(F)F)c3ccccc32)c2ccccc21: 15.6 µM (inactive)
- C=CCCC(=O)N1CCC(C(=O)OCC)C1=O (stereo unspecified): > 100 µM (inactive)
- C=CCCCn1ccc2ccccc21: > 100 µM (inactive)
- CC1=NN(c2nc(N)nc(/C(C#N)=C/c3ccccc3O)n2)C(C)(C)C1: 18.2 µM (inactive)
- CCOc1ncnc2ccc(Cl)c(I)c12: 31.2 µM (inactive)
- OC1CSCCCSCCSCCCSC1: > 100 µM (inactive)
- O=C(O)c1cccc(/[As]=[As]\c2cccc(C(=O)O)c2)c1 (stereo unspecified): 29.3 µM (inactive)
- CSc1ncc2c(n1)-c1ccccc1OC2NC(C)(C)C (stereo unspecified): 87.3 µM (inactive)
- C/C=C(/COC(C)=O)C(=O)OC1C=C(C=O)C(C)(C)C=C1C (stereo unspecified): > 100 µM (inactive)
- CC(C)C/C=C/C1=NN(c2cccc(S(=O)(=O)O)c2)C2(C1)SCC(=O)N2c1nc2ccccc2s1 (stereo unspecified): 37.2 µM (inactive)
- CC1OC23CCCCC2C(C#N)(C#N)C1(C#N)C(=N)O3 (stereo unspecified): 24.7 µM (inactive)
